assay: Acute toxicity in mice; assay type: in vivo; conditions: mouse, in vivo, ip, intraperitoneal
Counter-ions that a name gives are not always drawn.
LD50 at 48 h reference
# unit: mg/kg | format: bare number

CNC1C=Cc2cccc(Cl)c2CC1 (stereo not shown) [Example 11, hydrochloride]
75
CNC1CCc2ccccc2CC1 [Example 7, hydrochloride]
100
CN(C)C1C=Cc2ccccc2CC1 (stereo not shown) [Example 1, hydrochloride]
75

Proceed to the following item.
(Q) Requested field: LD50 at 48 h. Item: CN(C)C1C=C(c2ccccc2)c2ccccc2CC1 (stereo not shown) [Example 3, hydrochloride]
(A) 100
